test system: Diabrotica balteata (Corn Root Worm); assay: Diabrotica balteata (corn root worm), sprayed maize sprouts; assay type: in vivo; details: 96 h, application rate of 200 ppm, L2 larvae on maize sprouts, 4 days after infestation
Endpoint name: mortality at 200 ppm

Consider the worked cases shown below.
{"Substance smiles": "CCS(=O)(=O)c1cc(-c2cc(C)oc2C#N)cnc1-c1nc2cc(C(F)(F)F)ncc2n1C", "mortality at 200 ppm": "≥ 80%"}
{"Substance smiles": "CCS(=O)(=O)c1cc(-c2ccsc2)cnc1-c1nc2cc(C(F)(F)F)ncc2n1C", "mortality at 200 ppm": "≥ 80%"}

Q: Any idea what mortality at 200 ppm was measured for CCS(=O)(=O)c1cc(-c2cncc(C#N)c2)cnc1-c1nc2cc(C(F)(F)F)ncc2n1C ?
Result: ≥ 80%

Q: Any idea what mortality at 200 ppm was measured for CCS(=O)(=O)c1cc(-c2cncc(Cl)c2)cnc1-c1nc2cc(C(F)(F)F)ncc2n1C ?
Result: ≥ 80%

Q: Any idea what mortality at 200 ppm was measured for CCS(=O)(=O)c1cc(-c2ccoc2)cnc1-c1nc2cc(C(F)(F)F)ncc2n1C ?
Result: ≥ 80%

Q: Any idea what mortality at 200 ppm was measured for CCS(=O)(=O)c1cc(-n2cc(C#N)cn2)cnc1-c1nc2cc(C(F)(F)F)ncc2n1C ?
Result: ≥ 80%

Q: Any idea what mortality at 200 ppm was measured for CCS(=O)(=O)c1cc(-c2nc(C)cc(C3CC3)n2)cnc1-c1nc2cc(C(F)(F)F)ncc2n1C ?
Result: ≥ 80%
